meta.source: the supplement of paper PMC10307832

Test system: NCI-H2347
Assay: relative viability (nuclei count vs DMSO), 5 days (fraction); higher = more cells survive
Conditions: first compound 0.1265 µM
relative viability reference

{"compound": "O=C(O)c1ccc(-c2c[nH]c3ncc(-c4ccccc4)cc23)cc1C1CCCC1 + CC(C)C[C@H](NC(=O)[C@H](Cc1ccccc1)NC(=O)c1cnccn1)B(O)O [Bortezomib] (partner 0.002 µM)", "relative viability": 1.32}
{"compound": "O=C(O)c1ccc(-c2c[nH]c3ncc(-c4ccccc4)cc23)cc1C1CCCC1 + O=C(c1cc(Cc2n[nH]c(=O)c3ccccc23)ccc1F)N1CCN(C(=O)C2CC2)CC1 [Olaparib] (partner 8 µM)", "relative viability": 0.608}
{"compound": "O=C(O)c1ccc(-c2c[nH]c3ncc(-c4ccccc4)cc23)cc1C1CCCC1 + Cc1nc(NC(=O)N2CCC[C@H]2C(N)=O)sc1-c1ccnc(C(C)(C)C(F)(F)F)c1 [Alpelisib] (partner 2 µM)", "relative viability": 1.13}
{"compound": "O=C(O)c1ccc(-c2c[nH]c3ncc(-c4ccccc4)cc23)cc1C1CCCC1 + CS(=O)(=O)N1CCN(Cc2cc3nc(-c4cccc5[nH]ncc45)nc(N4CCOCC4)c3s2)CC1 [Pictilisib] (partner 1 µM)", "relative viability": 0.789}
